- subject.of.test: TcPTR1 (Trypanosoma cruzi)
- Sequence (O44029 entry or part of it): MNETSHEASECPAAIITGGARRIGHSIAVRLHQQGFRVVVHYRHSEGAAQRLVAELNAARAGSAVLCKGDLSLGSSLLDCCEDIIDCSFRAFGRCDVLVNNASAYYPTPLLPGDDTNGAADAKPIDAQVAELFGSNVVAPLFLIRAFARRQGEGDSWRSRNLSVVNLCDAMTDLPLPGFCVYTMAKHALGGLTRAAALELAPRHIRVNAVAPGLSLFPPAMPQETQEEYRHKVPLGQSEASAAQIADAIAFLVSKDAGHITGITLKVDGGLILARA
- experiment.notes: PTR1 enzyme inhibition (dihydrofolic acid substrate, NADPH cofactor), TcPTR1
- Assay type: biochemical
observable: Ki (µM)
Kindly answer with a numeric value in µM, unit omitted.

Prompt: Request body: readout Ki, system TcPTR1 (Trypanosoma cruzi), query CN(Cc1cnc2nc(N)nc(N)c2n1)c1ccc(C(=O)NC(CCC(=O)O)C(=O)O)cc1 (stereo not shown) . Return the value.
Completion: 0.11

* * *

What follows is a collection of pKi values obtained with hTS (Homo sapiens, UniProt P04818).
Sequence (P04818 whole entry): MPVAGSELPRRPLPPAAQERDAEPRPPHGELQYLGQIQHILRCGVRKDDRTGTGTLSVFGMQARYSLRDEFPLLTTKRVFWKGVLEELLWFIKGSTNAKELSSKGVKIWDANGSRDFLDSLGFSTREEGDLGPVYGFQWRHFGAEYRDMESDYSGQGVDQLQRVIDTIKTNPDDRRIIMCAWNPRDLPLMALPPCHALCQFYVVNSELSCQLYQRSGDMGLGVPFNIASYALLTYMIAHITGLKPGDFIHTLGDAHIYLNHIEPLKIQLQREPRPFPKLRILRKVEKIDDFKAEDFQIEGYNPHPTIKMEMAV
Entry type: numeric. Quantity: pKi, the -log10 of concentration in molar units.

Reference set (2 entries):
molecule	pKi
COC(=O)C1CCN(C(=O)c2ccc(NCc3nc4cc(C(F)(F)F)ccc4nc3-c3ccccc3)cc2)C(C(=O)OC)C1 (stereo not drawn)	4.89
CCOC(=O)c1nc2ccccc2nc1CNc1ccc(C(=O)N2CCC(C(=O)O)CC2C(=O)O)cc1 (stereo not drawn)	4.82

Prompt: Which measured pKi belongs to CCOC(=O)C1CCCCN1C(=O)c1ccc(NCc2cnc3ccc(C(F)(F)F)cc3n2)cc1 (stereo not drawn) , tested on hTS (Homo sapiens, UniProt P04818)?
Completion: 4.92

* * *

- subject.of.test: TcPTR1 (Trypanosoma cruzi)
- experiment.notes: PTR1 enzyme inhibition (dihydrofolic acid substrate, NADPH cofactor), TcPTR1
- Format: biochemical
- measurement.setup: NI means no inhibition at 190 μM; read-out: PTR1 Tc Ki
observable: pKi
Interpret pKi as the negative base-10 log of the concentration measured in mol/L.

Prompt: # query: pKi of entry CCOC(=O)c1nc2ccccc2nc1CNc1ccc(C(=O)N2CCC(C(=O)O)CC2C(=O)O)cc1 (stereo not drawn)
Completion: 4.42

Prompt: I have this compound here, O=C(O)C1CCN(C(=O)c2ccc(NCc3cnc4cccc(C(F)(F)F)c4n3)cc2)CC1 , and I need its recorded pKi.
Completion: 4.12

* * *

- subject.of.test: Lm TS (Leishmania major)
- Construct: made in house
- Sequence (P07382 whole entry): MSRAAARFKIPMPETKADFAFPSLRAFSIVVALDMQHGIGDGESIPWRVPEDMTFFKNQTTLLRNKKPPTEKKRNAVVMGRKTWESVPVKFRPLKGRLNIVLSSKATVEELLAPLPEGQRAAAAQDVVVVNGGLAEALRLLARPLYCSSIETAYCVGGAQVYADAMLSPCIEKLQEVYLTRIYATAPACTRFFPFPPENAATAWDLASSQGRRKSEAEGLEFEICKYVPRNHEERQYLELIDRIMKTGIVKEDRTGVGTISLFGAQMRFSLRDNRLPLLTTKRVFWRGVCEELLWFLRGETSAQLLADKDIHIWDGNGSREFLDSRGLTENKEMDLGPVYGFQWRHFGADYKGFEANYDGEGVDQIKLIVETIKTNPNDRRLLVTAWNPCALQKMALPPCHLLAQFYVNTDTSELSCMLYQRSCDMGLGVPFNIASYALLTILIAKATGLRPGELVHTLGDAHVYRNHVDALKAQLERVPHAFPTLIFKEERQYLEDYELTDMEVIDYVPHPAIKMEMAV
- experiment.notes: biochemical
- Assay type: biochemical
- measurement.setup: NI means no inhibition at 190 μM; read-out: TS Lm Ki
pKi: −log10 of the molar value.
observable: pKi

Examples with answers:
molecule	pKi
COC(=O)C1CCN(C(=O)c2ccc(NCc3nc4cc(C(F)(F)F)ccc4nc3-c3ccccc3)cc2)C(C(=O)OC)C1 (stereo not drawn)	< 3.72
O=C(O)C1CCN(C(=O)c2ccc(NCc3cnc4cccc(C(F)(F)F)c4n3)cc2)CC1	< 3.72
CCOC(=O)c1nc2ccccc2nc1CNc1ccc(C(=O)N2CCC(C(=O)O)CC2C(=O)O)cc1 (stereo not drawn)	< 3.72

Prompt: Look up pKi with Lm TS (Leishmania major) for this molecule: CCOC(=O)C1CCCCN1C(=O)c1ccc(NCc2cnc3ccc(C(F)(F)F)cc3n2)cc1 (stereo not drawn)
Completion: 4.07

Prompt: Form: Entry = COC(=O)C1CCN(C(=O)c2ccc(NCc3cnc4nc(N)nc(C)c4n3)cc2)CC1 | System = Lm TS (Leishmania major) | pKi = ____
Completion: < 3.72

Prompt: Form field - read-out: pKi; system: Lm TS (Leishmania major); submitted item: Cc1cc(C(F)(F)F)cc2nc(-c3ccccc3)c(CNc3ccc(C(=O)N4CCC(C(=O)O)CC4)cc3)nc12
Completion: < 3.72
